Target: T1, hAng2 (Homo sapiens, UniProt O15123)
T1 sequence (O15123 19-496): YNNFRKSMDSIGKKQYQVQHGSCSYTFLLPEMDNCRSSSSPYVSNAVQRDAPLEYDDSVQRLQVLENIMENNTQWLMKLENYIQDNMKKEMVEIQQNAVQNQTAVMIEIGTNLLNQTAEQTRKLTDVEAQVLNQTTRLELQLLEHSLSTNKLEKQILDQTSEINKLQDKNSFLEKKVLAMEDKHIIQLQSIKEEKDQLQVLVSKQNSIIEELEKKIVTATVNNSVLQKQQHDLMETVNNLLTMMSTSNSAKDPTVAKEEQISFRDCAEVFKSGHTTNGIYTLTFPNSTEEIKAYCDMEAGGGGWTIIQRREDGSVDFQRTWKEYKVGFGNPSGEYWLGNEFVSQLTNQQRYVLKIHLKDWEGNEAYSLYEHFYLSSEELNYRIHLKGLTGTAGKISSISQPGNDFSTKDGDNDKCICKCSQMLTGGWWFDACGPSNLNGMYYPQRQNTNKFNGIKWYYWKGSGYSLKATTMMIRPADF
Assay: OCTET affinity of humanized anti-Ang2 antibodies against hAng2
Type: binding
Conditions: OCTET, antibody fixed on AR2G biosensor, hAng2 50-0 nM, 1:1 binding model
Examples of molecules with documented Kdis follow.

molecule	Kdis [s⁻¹]
2C8H51: humanized anti-Ang2 antibody from mouse 2C8; VH SEQ ID NO: 71, VL SEQ ID NO: 72 (antibody, V domains shown, VH; VL) VH: QVQLVQSGAEVKKPGASVKVSCKASGYSFTSYWMHWVKQAPGQGLEWIGMIDPSDSETRLNQKFKDKASLTVDTSTSTVYMELSSLRSEDTAVYYCARRFYYGSDWYFDVWGQGTLVTVSS VL: DIQLTQSPSFLSASVGDRVTITCKASQDVGTAVAWYQQKPGKAPKLLIYWASTRHTGVPSRFSGSGSGTEFTLTISSLQPEDFATYYCQQYSSYPLTFGQGTKVEIK	9.61e-06
2C8H11: humanized anti-Ang2 human IgG1 antibody from mouse 2C8; VH SEQ ID NO: 55, VL SEQ ID NO: 56 (antibody, V domains shown, human IgG1 constant regions; VH; VL) VH: QVQLVQSGAEVKKPGASVKVSCKASGYTFTSYWMHWVRQAPGQGLEWMGMIDPSDSETRLNQKFKDRVTMTRDTSTSTVYMELSSLRSEDTAVYYCARRFYYGSDWYFDVWGQGTLVTVSS VL: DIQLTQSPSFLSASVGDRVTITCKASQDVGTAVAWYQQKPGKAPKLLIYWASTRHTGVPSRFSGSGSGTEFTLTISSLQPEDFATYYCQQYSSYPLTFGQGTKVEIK	1.4e-05
